src = paper PMC9599461

Biological target: OCT3 (Homo sapiens, UniProt O75751)
Sequence (O75751 whole entry): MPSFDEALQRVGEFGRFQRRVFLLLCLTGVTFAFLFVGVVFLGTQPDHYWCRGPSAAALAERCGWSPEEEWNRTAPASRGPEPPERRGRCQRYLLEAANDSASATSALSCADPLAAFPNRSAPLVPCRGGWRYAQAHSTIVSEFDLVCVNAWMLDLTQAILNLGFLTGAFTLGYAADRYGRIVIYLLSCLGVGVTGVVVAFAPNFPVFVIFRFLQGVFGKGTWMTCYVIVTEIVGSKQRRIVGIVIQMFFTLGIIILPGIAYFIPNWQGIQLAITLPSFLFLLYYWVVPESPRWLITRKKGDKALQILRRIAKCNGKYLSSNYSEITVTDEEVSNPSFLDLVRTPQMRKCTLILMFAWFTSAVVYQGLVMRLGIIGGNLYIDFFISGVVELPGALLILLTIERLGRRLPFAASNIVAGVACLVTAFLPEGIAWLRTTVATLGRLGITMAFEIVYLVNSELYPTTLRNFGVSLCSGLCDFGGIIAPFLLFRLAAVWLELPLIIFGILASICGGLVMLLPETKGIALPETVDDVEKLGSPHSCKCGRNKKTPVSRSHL
Assay: Stereoselective uptake into OCT3-overexpressing HEK293 cells;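 note: intracellular accumulation in HEK293 cells measured by chiral HPLC-MS/MS after a 2 min substrate exposure at 37 °C, uptake normalized to total protein (bicinchoninic acid assay)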
Conditions: OCT3; quotient of vmax over Km
Reported Clint ± SEM values are given for each entry in this list.

Q: // query Clint ± SEM value for entry NC[C@@H](O)c1ccccc1 [(S)-Bisnorephedrine]
Ans: 3.85 mL × g Protein^−1 × min^−1

Q: // query Clint ± SEM value for entry NC[C@H](O)c1ccccc1 [(R)-Bisnorephedrine]
Ans: 4.00 mL × g Protein^−1 × min^−1

Q: // query Clint ± SEM value for entry CNCC(O)c1ccc(O)c(OC)c1 (single isomer, unassigned) [Metanephrine-1, Metanephrine]
Ans: 25.9 mL × g Protein^−1 × min^−1

Q: // query Clint ± SEM value for entry CNC[C@@H](O)c1ccc(O)c(O)c1 [(S)-Epinephrine]
Ans: 11.7 ± 4.9 mL × g Protein^−1 × min^−1

Q: // query Clint ± SEM value for entry NC[C@H](O)c1ccc(O)c(O)c1 [(R)-Norepinephrine]
Ans: 6.61 ± 3.02 mL × g Protein^−1 × min^−1

Q: // query Clint ± SEM value for entry CNCC(O)c1ccc(O)c(OC)c1 (single isomer, unassigned) [Metanephrine-2, Metanephrine]
Ans: 26.0 mL × g Protein^−1 × min^−1

Q: // query Clint ± SEM value for entry NCC(O)c1cccc(O)c1 (single isomer, unassigned) [Norphenylephrine-2, Norphenylephrine]
Ans: 3.32 mL × g Protein^−1 × min^−1

Q: // query Clint ± SEM value for entry C[C@@H]1NCCc2cc(O)c(O)cc21 [Salsolinol-2, Salsolinol]
Ans: 3.15 mL × g Protein^−1 × min^−1

More entries:
Q: // query Clint ± SEM value for entry NC[C@@H](O)c1ccc(O)c(O)c1 [(S)-Norepinephrine]
Ans: 7.05 ± 2.73 mL × g Protein^−1 × min^−1

Q: // query Clint ± SEM value for entry NC[C@@H](O)c1ccc(O)cc1 [(S)-Octopamine]
Ans: 53.4 mL × g Protein^−1 × min^−1

====

Reported Stereoselectivity Vmax values are given for each entry in this list.
Biological target: DAT (Homo sapiens)
Sequence (Q01959 whole entry): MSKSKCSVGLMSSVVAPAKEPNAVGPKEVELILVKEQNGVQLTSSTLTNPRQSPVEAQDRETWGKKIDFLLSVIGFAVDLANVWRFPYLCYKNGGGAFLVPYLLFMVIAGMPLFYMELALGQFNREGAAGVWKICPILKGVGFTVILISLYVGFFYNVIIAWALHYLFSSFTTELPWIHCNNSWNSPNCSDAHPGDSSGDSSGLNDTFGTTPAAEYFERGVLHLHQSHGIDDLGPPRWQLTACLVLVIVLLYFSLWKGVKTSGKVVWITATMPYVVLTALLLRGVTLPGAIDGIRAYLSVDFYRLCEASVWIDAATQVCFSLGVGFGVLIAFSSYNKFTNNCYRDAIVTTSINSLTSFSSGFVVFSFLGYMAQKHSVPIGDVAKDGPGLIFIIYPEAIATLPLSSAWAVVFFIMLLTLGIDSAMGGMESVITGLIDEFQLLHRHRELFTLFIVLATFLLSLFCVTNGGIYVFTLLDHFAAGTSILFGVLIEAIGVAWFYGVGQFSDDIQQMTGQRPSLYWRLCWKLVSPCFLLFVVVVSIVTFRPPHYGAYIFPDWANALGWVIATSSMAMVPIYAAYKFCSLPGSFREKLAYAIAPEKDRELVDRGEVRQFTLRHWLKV
Assay: Stereoselective uptake into DAT-overexpressing HEK293 cells;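 note: intracellular accumulation measured by chiral HPLC-MS/MS in stably transfected HEK293 cells, normalized to total protein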
Conditions: DAT; ratio between enantiomers, given as for (R) or for 1
Note: unit fold is implicit; provide only the numeric part.

Would you please look over these solved cases?
Q: // query Stereoselectivity Vmax value for entry CNC[C@@H](O)c1cccc(O)c1 [(S)-Phenylephrine]
Ans: 1.56

Q: // query Stereoselectivity Vmax value for entry CNC[C@H](O)c1ccc(O)cc1 [(R)-Synephrine]
Ans: 1.84

Q: // query Stereoselectivity Vmax value for entry CNC[C@@H](O)c1ccc(O)cc1 [(S)-Synephrine]
Ans: 1.84

Q: // query Stereoselectivity Vmax value for entry CNC[C@H](O)c1cccc(O)c1 [(R)-Phenylephrine]
Ans: 1.56

Q: // query Stereoselectivity Vmax value for entry NC[C@H](O)c1ccc(O)cc1 [(R)-Octopamine]
Ans: 1.05

Now, please, on to the next molecule.
Q: // query Stereoselectivity Vmax value for entry NC[C@@H](O)c1ccc(O)cc1 [(S)-Octopamine]
Ans: 1.05

====

Biological target: OCT1 (Homo sapiens, UniProt O15245)
Assay: Stereoselective uptake into OCT1-overexpressing HEK293 cells;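 note: enantiomers quantified inside cells by chiral HPLC-MS/MS, uptake normalized to total protein from bicinchoninic acid assay, substrates applied in HBSS+ buffer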
Conditions: human, Stereoselectivity ClInt, OCT1; ratio between enantiomers, given as for (R) or for 1 (also 1.00-fold for 1/2)
Measured Attribute: selectivity ratio at 2 min
Keep it simple and answer with nothing but the number.

Q: // query selectivity ratio at 2 min value for entry CNC[C@@H](O)c1ccc(O)cc1 [(S)-Synephrine]
Ans: 1.73

Now, please, on to the next compound.
Q: // query selectivity ratio at 2 min value for entry CNC[C@H](O)c1ccc(O)cc1 [(R)-Synephrine]
Ans: 1.73

====

Tested on: OCT2 A270S variant
Test: Stereoselective uptake into OCT2 A270S variant-overexpressing HEK293 cells;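 note: uptake into HEK293 cells stably overexpressing human OCT2 variants, intracellular enantiomers quantified by chiral HPLC-MS/MS and normalized to total protein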
Conditions: OCT2 wild-type versus A270S, 100 μM racemic substance, two minutes; given as for WT
Reported Transporter selectivity values are given for each entry in this list.
Note: unit fold is implicit; provide only the numeric part.

Would you please look over these solved cases?
Q: Which Transporter selectivity is reported with OCT2 A270S variant for this entry: NC[C@@H](O)c1ccccc1 [(S)-Bisnorephedrine] ?
Ans: 1.24

Q: Which Transporter selectivity is reported with OCT2 A270S variant for this entry: NC[C@H](O)c1ccccc1 [(R)-Bisnorephedrine] ?
Ans: 1.50

Q: Which Transporter selectivity is reported with OCT2 A270S variant for this entry: NC[C@H](O)c1ccc(O)c(O)c1 [(R)-Norepinephrine] ?
Ans: 1.21

Now, please, on to the next compound.
Q: Which Transporter selectivity is reported with OCT2 A270S variant for this entry: NC[C@@H](O)c1ccc(O)c(O)c1 [(S)-Norepinephrine] ?
Ans: 1.22

====

Tested on: OCT2 wild-type versus A270S variant
Experiment: in vitro
Details: human, Transporter selectivity, OCT2 wild-type versus A270S, 100 μM racemic substance, two minutes; given as for A270S
Reported selectivity ratio at 2 min, 100 μM values are given for each entry in this list.
Keep it simple and answer with nothing but the number.

Q: Which selectivity ratio at 2 min, 100 μM is reported with OCT2 wild-type versus A270S variant for this entry: CNCC(O)c1ccc(O)c(OC)c1 (single isomer, unassigned) [Metanephrine-1, Metanephrine] ?
Ans: 1.2

Now, please, on to the next compound.
Q: Which selectivity ratio at 2 min, 100 μM is reported with OCT2 wild-type versus A270S variant for this entry: CNCC(O)c1ccccc1 (centres unmarked) [Halostachine-2, Halostachine] ?
Ans: 1.05

====

Reported selectivity ratio at 2 min, 100 μM values are given for each entry in this list.
System: OCT2 wild-type versus A270S variant
Assay: in vitro
Conditions: human, Transporter selectivity, OCT2 wild-type versus A270S, 100 μM racemic substance, two minutes; given as for WT
Keep it simple and answer with nothing but the number.

Would you please look over these solved cases?
Q: // query selectivity ratio at 2 min, 100 μM value for entry CNC[C@@H](O)c1cccc(O)c1 [(S)-Phenylephrine]
Ans: 1.13

Q: // query selectivity ratio at 2 min, 100 μM value for entry CNC[C@H](O)c1cccc(O)c1 [(R)-Phenylephrine]
Ans: 1.27

Q: // query selectivity ratio at 2 min, 100 μM value for entry NCC(O)c1cccc(O)c1 (single isomer, unassigned)
Ans: 1.18

Q: // query selectivity ratio at 2 min, 100 μM value for entry CNCC(O)c1ccccc1 (stereo not shown)
Ans: 1.02

Q: // query selectivity ratio at 2 min, 100 μM value for entry COc1cc(C(O)CN)ccc1O (single isomer, unassigned)
Ans: 1.21

More entries:
Q: // query selectivity ratio at 2 min, 100 μM value for entry CNC[C@H](O)c1ccc(O)cc1 [(R)-Synephrine]
Ans: 1.41

Q: // query selectivity ratio at 2 min, 100 μM value for entry CNC[C@@H](O)c1ccc(O)cc1 [(S)-Synephrine]
Ans: 1.2

====

Biological target: OCT1 (Homo sapiens, UniProt O15245)
Sequence (O15245 1-554): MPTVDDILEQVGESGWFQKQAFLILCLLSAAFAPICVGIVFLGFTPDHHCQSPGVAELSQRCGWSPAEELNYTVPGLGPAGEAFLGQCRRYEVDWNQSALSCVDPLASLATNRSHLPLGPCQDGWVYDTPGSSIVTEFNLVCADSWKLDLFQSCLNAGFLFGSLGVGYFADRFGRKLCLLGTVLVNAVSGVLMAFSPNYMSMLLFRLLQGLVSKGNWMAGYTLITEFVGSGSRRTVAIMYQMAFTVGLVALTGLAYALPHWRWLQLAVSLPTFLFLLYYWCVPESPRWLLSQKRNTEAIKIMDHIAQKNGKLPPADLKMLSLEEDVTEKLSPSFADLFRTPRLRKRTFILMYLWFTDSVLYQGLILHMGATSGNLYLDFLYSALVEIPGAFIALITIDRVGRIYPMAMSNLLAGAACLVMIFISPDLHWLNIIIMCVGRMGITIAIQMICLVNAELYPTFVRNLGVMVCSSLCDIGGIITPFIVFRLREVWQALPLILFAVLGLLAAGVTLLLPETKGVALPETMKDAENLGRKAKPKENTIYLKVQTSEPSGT
Assay: Stereoselective uptake into OCT1-overexpressing HEK293 cells
Settings: read-out: Km ± SEM; HEK293 cells overexpressing human OCT1; racemic substrate, two minutes; net uptake minus empty vector control
Reported log10(Km) values are given for each entry in this list.
Response schema: value (number) is log10 of Km in units of µM.

Q: // query log10(Km) value for entry C[C@@H]1NCCc2cc(O)c(O)cc21 [Salsolinol-2, Salsolinol]
Ans: 2.12

Q: // query log10(Km) value for entry NC[C@@H](O)c1ccccc1 [(S)-Bisnorephedrine]
Ans: 2.21

More entries:
Q: // query log10(Km) value for entry NC[C@H](O)c1ccc(O)c(O)c1 [(R)-Norepinephrine]
Ans: 3.53

Q: // query log10(Km) value for entry NC[C@H](O)c1ccccc1 [(R)-Bisnorephedrine]
Ans: 2.27

Q: // query log10(Km) value for entry C[C@@H]1NCCc2cc(O)c(O)cc21 [Salsolinol-1, Salsolinol]
Ans: 2.12

Q: // query log10(Km) value for entry CNC[C@@H](O)c1ccc(O)c(O)c1 [(S)-Epinephrine]
Ans: 2.83

Q: // query log10(Km) value for entry NC[C@@H](O)c1ccc(O)c(O)c1 [(S)-Norepinephrine]
Ans: 3.57
